B1: Transitional endoplasmic reticulum ATPase, residues 26 to 106; numbered along this chain, P55072 (parent)
chain: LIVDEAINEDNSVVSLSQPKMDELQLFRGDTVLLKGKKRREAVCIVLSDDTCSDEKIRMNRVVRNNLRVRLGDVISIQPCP

# Variants of: B1
# assay.protocol: abundance fitness (aPCA) (normalised: wild type 0, dead -1); higher = more abundant; growth selection in yeast, the domain comes from the species named
# test.context: Homo sapiens
Returns one of 1.0 or 0.0; 1.0 when abundance fitness is >= -0.1.

The following variants have reported results that may help.
1. S17V	0.0
2. C80F	1.0

Could you verify whether the entry `P19H` shows abundance fitness of no less than -0.1? 1.0

Could you verify whether the entry `S48F` shows abundance fitness of no less than -0.1? 0.0

Could you verify whether the entry `Q78Y` shows abundance fitness of no less than -0.1? 1.0

Could you verify whether the entry `A42V` shows abundance fitness of no less than -0.1? 1.0

Could you verify whether the entry `K38C` shows abundance fitness of no less than -0.1? 0.0
